B1: TPR 5TU (parent)
chain: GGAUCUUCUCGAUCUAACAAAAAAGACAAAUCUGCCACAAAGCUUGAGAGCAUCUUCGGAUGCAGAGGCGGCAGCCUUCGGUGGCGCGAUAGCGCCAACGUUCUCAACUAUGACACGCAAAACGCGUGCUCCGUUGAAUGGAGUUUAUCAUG

# Variants of: B1
# Protocol text: polymerase ribozyme fitness, log enrichment relative to wild type (log ratio); higher = more active; in vitro selection for triplet polymerase activity
Fewer inactive variants are shown than the library holds.

Mutations	Result operator	polymerase ribozyme fitness (log ratio)
A122U U135C A137G	=	-3.91
A47U U77C C85A C93G A107U	≤	-4.2
G74U A97U	=	-4.18
G81A C103A	=	-1.13
G11A A113U	=	-2.69
C87U A89G	=	-3.41
U7C C85U U145A	=	-2.42
C5A U13A A24G U82C G100C	≤	-4.2
A66C G71C G84U	≤	-4.2
G50A C69U A121U A137C	≤	-4.2
A22U G50U C54U A66C A91G G92U A138G	≤	-4.2
U9A A41U A52C G62U C87G A89G C95U C116A A142C U146A A150C	≤	-4.2
C10G A73U C76A C85G	≤	-4.2
U55A C132A A137G G143A U146G	≤	-4.2
C18G G46A G74C U77A U135C	≤	-4.2
G58U U82A A142G	=	-0.998
A20G C36G G83A A91G A142G	≤	-4.2
U15G G71U	=	-2.28
A12U A16C C57G G81A U104G A115G	≤	-4.2
A21G U44A G68U G83U A106G A115U C118A A119C C123U U144G	≤	-4.2
U56A U146A U148C	=	-2.96
U55A C72A A119U	≤	-4.2
A37U G83C A91C A98G G124U	≤	-4.2
U82A C96G	=	-0.244
U9A A39U G48A G84U C99A G117U	≤	-4.2
G68A C79U U139G U146C	≤	-4.2
U45A A121G C131G G140U	≤	-4.2
A91G U130G	≤	-4.2
C35U G58C G71A C93G	=	-3.09
U55A U139G	=	-0.865
U53A C54U U55A A60U U77G C85U G92A G112A A121U	≤	-4.2
A26U C103A C114U	≤	-4.2
C35U G71U	=	-3.53
A52G G84U	=	-1.32
U55A G94C U148G	≤	-4.2
C27U C57A	=	-0.747
A16G C57A G86C G124U	=	-3.24
G50C G59A	=	-3.03
U31C G46C G92A	=	-3.48
C14A A20G C38A A39G C54U A91C A106U G124C	≤	-4.2
G50U A66U C69G U135C	≤	-4.2
A37C A49C G59C G83C C95A A122U G143U A150G	≤	-4.2
G126A A150G	=	-2.66
U6G A29U A73G U77C C95U A107U	≤	-4.2
G46A C54G C95U	=	-2.17
A12U U45A U55G A66G U78C G88U C95G A137U	≤	-4.2

Entry source: the RNAGym collection of RNA variant scans (doi:10.1073/pnas.2313332121)
